Answer each item with its documented half-life at 20 μM.
experiment: in vitro; conditions: human, 20% fecal homogenate (supernatant), anaerobic, pH 6.8

half-life at 20 μM lookup needed for CC(=O)N[C@@H]1C(=O)N[C@@H](CC(N)=O)C(=O)N[C@@H]([C@@H](C)O)C(=O)N[C@@H](Cc2c[nH]c3c(C)cccc23)C(=O)N[C@@H](CCC(N)=O)C(=O)N[C@H](C(=O)N[C@@H](Cc2ccc(OCCN)cc2)C(=O)N[C@@H](Cc2ccc3ccccc3c2)C(=O)N[C@@](C)(CC(C)C)C(=O)NCC(=O)N2CCC[C@@H]2C(=O)NCCC(N)=O)C(C)(C)SSC1(C)C , thanks.
> 24 h

half-life at 20 μM lookup needed for CC(=O)NCCCC[C@H](NC(=O)[C@](C)(CC(C)C)NC(=O)[C@H](Cc1ccc2ccccc2c1)NC(=O)[C@H](Cc1ccc(OCCN)cc1)NC(=O)[C@H]1NC(=O)[C@H](CCC(N)=O)NC(=O)[C@H](Cc2c[nH]c3c(C)cccc23)NC(=O)[C@H]([C@@H](C)O)NC(=O)[C@H](CC(N)=O)NC(=O)[C@@H](NC(C)=O)C(C)(C)SSC1(C)C)C(=O)N[C@@H](CO)C(=O)NCCC(N)=O , thanks.
> 24 h

----------
molecular target: IL-23R (Homo sapiens); experiment: DB cells IL23R pSTAT3 cell assay (pStat3 HTRF); type: cell-based; settings: Table E3; DB cells, IL-23 0.5 nM, 30 minutes at 37° C.; read-out: pStat3 HTRF (IC50)
Sequence (Q5VWK5 24-629): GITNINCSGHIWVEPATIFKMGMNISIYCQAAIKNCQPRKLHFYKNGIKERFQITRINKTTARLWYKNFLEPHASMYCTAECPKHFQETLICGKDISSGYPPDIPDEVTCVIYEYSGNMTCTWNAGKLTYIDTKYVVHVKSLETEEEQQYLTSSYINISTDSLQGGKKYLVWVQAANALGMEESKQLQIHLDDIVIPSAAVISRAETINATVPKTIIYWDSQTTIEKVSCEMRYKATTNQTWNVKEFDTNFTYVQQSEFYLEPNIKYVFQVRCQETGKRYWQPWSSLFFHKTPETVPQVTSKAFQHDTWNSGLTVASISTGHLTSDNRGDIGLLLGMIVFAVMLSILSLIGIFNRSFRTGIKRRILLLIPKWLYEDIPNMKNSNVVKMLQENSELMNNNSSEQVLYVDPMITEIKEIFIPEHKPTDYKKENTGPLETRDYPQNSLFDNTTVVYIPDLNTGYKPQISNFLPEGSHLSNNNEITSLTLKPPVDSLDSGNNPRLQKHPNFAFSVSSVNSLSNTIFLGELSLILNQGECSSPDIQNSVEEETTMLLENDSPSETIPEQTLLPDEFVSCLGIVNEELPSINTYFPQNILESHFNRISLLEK
pIC50: −log10 of the molar value. Bridge positions count the residues as written; N and C are the ends. Square brackets hold non-standard residues; d marks the D form. Peptide text beside a SMILES is read from it. Trp(7-Me) = Cc1cccc2c(C[C@H](N)C(=O)O)c[nH]c12; 2Nal = N[C@@H](Cc1ccc2ccccc2c1)C(=O)O; AEF = NCCOc1ccc(C[C@H](N)C(=O)O)cc1; Cit = NC(=O)NCCC[C@H](N)C(=O)O; Pen = CC(C)(S)[C@H](N)C(=O)O; αMeK = C[C@](N)(CCCCN)C(=O)O; Aib = CC(C)(N)C(=O)O; βAla = NCCC(=O)O
property-measured: pIC50

API: value(readout= pIC50, system= IL-23R (Homo sapiens), query= CC(=O)NCCCC[C@@H]1NC(=O)[C@H](Cc2c[nH]c3c(C)cccc23)NC(=O)[C@H]([C@@H](C)O)NC(=O)[C@H](CC(N)=O)NC(=O)[C@@H](NC(C)=O)C(C)(C)SSC(C)(C)[C@@H](C(=O)N[C@@H](Cc2ccc3ccccc3c2)C(=O)N[C@@H](Cc2ccc3ccccc3c2)C(=O)N[C@@](C)(CCCCN)C(=O)N[C@@H](CCCCNC(C)=O)C(=O)N[C@@H](CC(N)=O)C(=O)N[C@H](CC(C)C)C(N)=O)NC1=O [compound 289] (Ac-[Pen]NT[Trp(7-Me)]K(Ac)[Pen][2Nal][2Nal][αMeK]K(Ac)N[dL]-NH2; disulfide 1-6) )
8.00 to 9.00

API: value(readout= pIC50, system= IL-23R (Homo sapiens), query= CC(=O)NCCCC[C@H](NC(=O)[C@](C)(CCCCN)NC(=O)[C@H](Cc1ccc2ccccc2c1)NC(=O)[C@H](Cc1ccc(OCCN)cc1)NC(=O)[C@H]1NC(=O)[C@H](CCC(N)=O)NC(=O)[C@H](Cc2cn(C)c3ccccc23)NC(=O)[C@H]([C@@H](C)O)NC(=O)[C@H](CC(N)=O)NC(=O)[C@@H](NC(C)=O)C(C)(C)SSC1(C)C)C(=O)N[C@@H](CC(N)=O)C(=O)NCCC(N)=O [compound 232] )
8.00 to 9.00

API: value(readout= pIC50, system= IL-23R (Homo sapiens), query= CC(=O)NCCCC[C@H](NC(=O)[C@](C)(CCCCN)NC(=O)[C@H](Cc1ccc2ccccc2c1)NC(=O)[C@H](Cc1ccc(OCCN)cc1)NC(=O)[C@H]1NC(=O)[C@H](CCCNC(N)=O)NC(=O)[C@H](Cc2c[nH]c3c(C)cccc23)NC(=O)[C@H]([C@@H](C)O)NC(=O)[C@H](CC(N)=O)NC(=O)[C@@H](NC(C)=O)C(C)(C)SSC1(C)C)C(=O)N[C@@H](CC(N)=O)C(=O)NC(C)(C)C(N)=O [compound 264] (Ac-[Pen]NT[Trp(7-Me)][Cit][Pen][AEF][2Nal][αMeK]K(Ac)N[Aib]-NH2; disulfide 1-6) )
> 9.00

API: value(readout= pIC50, system= IL-23R (Homo sapiens), query= CC(=O)NCCCC[C@H](NC(=O)[C@](C)(CCCCN)NC(=O)[C@H](Cc1ccc2ccccc2c1)NC(=O)[C@H](Cc1ccc(OCCN)cc1)NC(=O)[C@H]1NC(=O)[C@H](CCC(N)=O)NC(=O)[C@H](Cc2c[nH]c3c(C)cccc23)NC(=O)[C@H]([C@@H](C)O)NC(=O)[C@H](CCCNC(N)=O)NC(=O)[C@@H](NC(C)=O)C(C)(C)SSC1(C)C)C(=O)N[C@@H](CC(N)=O)C(=O)NCCC(N)=O [compound 238] (Ac-[Pen][Cit]T[Trp(7-Me)]Q[Pen][AEF][2Nal][αMeK]K(Ac)N[βAla]-NH2; disulfide 1-6) )
8.00 to 9.00

API: value(readout= pIC50, system= IL-23R (Homo sapiens), query= COc1cccc2c(C[C@@H]3NC(=O)[C@H]([C@@H](C)O)NC(=O)[C@H](CC(N)=O)NC(=O)[C@@H](NC(C)=O)C(C)(C)SSC(C)(C)[C@@H](C(=O)N[C@@H](Cc4ccc(OCCN)cc4)C(=O)N[C@@H](Cc4ccc5ccccc5c4)C(=O)N[C@@](C)(CCCCN)C(=O)N[C@@H](CCCCNC(C)=O)C(=O)N[C@@H](CC(N)=O)C(=O)N[C@H](CC(C)C)C(N)=O)NC(=O)[C@H](CCCCNC(C)=O)NC3=O)c[nH]c12 [compound 288] )
8.00 to 9.00
